# Measurement Target: Bifunctional epoxide hydrolase 2 (Homo sapiens, UniProt P34913)
# Sequence (P34913 whole entry): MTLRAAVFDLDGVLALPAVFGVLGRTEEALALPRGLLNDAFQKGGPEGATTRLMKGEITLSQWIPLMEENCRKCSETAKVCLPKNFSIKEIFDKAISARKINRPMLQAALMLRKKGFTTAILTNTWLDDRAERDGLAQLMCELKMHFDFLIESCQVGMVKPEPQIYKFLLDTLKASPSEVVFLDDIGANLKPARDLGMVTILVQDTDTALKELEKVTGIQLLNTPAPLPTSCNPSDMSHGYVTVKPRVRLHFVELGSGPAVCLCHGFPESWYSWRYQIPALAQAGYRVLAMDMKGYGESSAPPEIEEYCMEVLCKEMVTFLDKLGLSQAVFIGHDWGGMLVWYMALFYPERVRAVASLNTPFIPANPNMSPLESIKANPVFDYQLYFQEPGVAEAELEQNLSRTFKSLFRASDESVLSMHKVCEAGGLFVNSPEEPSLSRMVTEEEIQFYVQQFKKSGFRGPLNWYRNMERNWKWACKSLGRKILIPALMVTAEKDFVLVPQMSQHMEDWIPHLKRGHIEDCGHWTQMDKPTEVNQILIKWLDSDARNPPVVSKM
# Assay Overview: Inhibition of human recombinant soluble epoxide hydrolase expressed in baculovirus-infected High Five cells S9 fraction using CMNPC substrate by fluorescence based assay
Endpoint Name: pIC50
One number for each entry, as −log10 of the molar value.

Record excerpt, results attached:
                                   compound                        measurement_target  endpoint_name  observed_value
0  O=C(Nc1ccc(Cl)cc1)N[C@H]1CC[C@H](Oc2ccc(C(=O)O)cc2)CC1  Bifunctional epoxide hydrolase 2 (Homo sapiens, UniProt P34913)          pIC50            8.15
1  O=C(NC1CCCCC1)N[C@H]1CC[C@H](Oc2ccc(C(=O)O)cc2)CC1  Bifunctional epoxide hydrolase 2 (Homo sapiens, UniProt P34913)          pIC50            8.22
2  NC(=O)c1cccc(-c2cccc(OC(=O)NC3CCCCC3)c2)c1 [URB-597]  Bifunctional epoxide hydrolase 2 (Homo sapiens, UniProt P34913)          pIC50            5.96

Pending compound:
Query the reported pIC50 for Bifunctional epoxide hydrolase 2 (Homo sapiens, UniProt P34913); item: O=C(Nc1ccc(Oc2ccc(C(=O)O)cc2)cc1)Nc1ccc(OC(F)(F)F)cc1
8.15

Attribution: ChEMBL document CHEMBL4184221
